B1: TPPP (parent)
chain: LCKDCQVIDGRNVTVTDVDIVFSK

Variants of: B1
Assay: protein stability index of a GFP-peptide fusion (GPS, HEK-293T) (PSI 1-6); higher = more stable;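 note: lentivirally expressed fusions sorted by FACS into six bins by GFP to DsRed ratio, PSI derived from sequencing read proportions per bin multiplied by bin number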
Settings: c terminus: a fixed tail appended
measurement-label: protein stability index

• LCKDCQVIDGRNVTRTDVDIVFSK [V15R] = 3.44
• LCKDCQVIHGRNVTVTDVDIVFSK [D9H] = 2.07
• LCKDCAVIDGRNVTVTDVDIVFSK [Q6A] = 2.05
• LCKDCQVIDGRNVTVTDVYIVFSK [D19Y] = 1.47

q: Data request, read-out protein stability index, for LDKDCQVIDGRNVTVTDVDIVFSK [C2D]
a: 4.08

q: Report protein stability index for LCKDCQVIDGHNVTVTDVDIVFSK [R11H] please.
a: 2.15

q: Record request: protein stability index value, item LCKDCQVIDGRNVTVTDSDIVFSK [V18S]
a: 3.12

q: Fill in the blank: the reported protein stability index of LCKDCQVILGRNVTVTDVDIVFSK [D9L] is ____.
a: 2.48

q: Entry under review: LCKDCQVIDGRNVTVTDVDIVCSK [F22C] . Reported protein stability index?
a: 3.38

q: protein stability index for LNKDCQVIDGRNVTVTDVDIVFSK [C2N] ?
a: 3.59

q: Data request, read-out protein stability index, for LCKDCSVIDGRNVTVTDVDIVFSK [Q6S]
a: 2.61

q: protein stability index for LCFDCQVIDGRNVTVTDVDIVFSK [K3F] ?
a: 1.65

q: Fill in the blank: the reported protein stability index of LCKDCQVIDGRNVTVTDVDQVFSK [I20Q] is ____.
a: 3.79

q: I would be grateful if you could share the reported protein stability index for LCKDCQVIDGRNATVTDVDIVFSK [V13A] .
a: 2.75

q: GET /values?readout=protein stability index&item= LCKDCQVIDGRNVTVTDIDIVFSK [V18I]
a: 2.44

These measurements were taken from the supplement of paper PMC10567573.
